test: Displacement of fluorescent-ARC-1063 from recombinant bovine PKAc by luminescence intensity assay; design: species or system Bos taurus
Where a SMILES comes first, the peptide text is derived from it. [ ]: non-standard residue; d: D form. The star is where a group is joined. Adenosine(5'-uronoyl) = Nc1ncnc2c1ncn2[C@@H]1O[C@H](C(=O)*)[C@@H](O)[C@H]1O; X1 = Nc1nccc(-c2ccc(C(=O)*)s2)n1; Ahx = NCCCCCC(=O)O
measurement_label: pIC50
Lab note: jot down the number only; don't add units.

// pIC50 value for N=C(N)NCCC[C@@H](NC(=O)[C@@H](CCCNC(=N)N)NC(=O)CCCCCNC(=O)[C@@H](CCCCN)NC(=O)CCCCCNC(=O)[C@H]1O[C@@H](n2cnc3c(N)ncnc32)[C@H](O)[C@@H]1O)C(N)=O : 4.87

// pIC50 value for O=S(=O)(NCCNC/C=C/c1ccc(Br)cc1)c1cccc2cnccc12 : 4.3

// pIC50 value for N=C(N)NCCC[C@@H](NC(=O)[C@@H](CCCNC(=N)N)NC(=O)[C@@H](CCCNC(=N)N)NC(=O)[C@@H](CCCNC(=N)N)NC(=O)[C@@H](CCCNC(=N)N)NC(=O)[C@@H](CCCNC(=N)N)NC(=O)CCCCCNC(=O)[C@@H](CCCCN)NC(=O)CCCCCNC(=O)[C@H]1O[C@@H](n2cnc3c(N)ncnc32)[C@H](O)[C@@H]1O)C(N)=O ({Adenosine(5'-uronoyl)-Ahx}-[dK][Ahx][dR][dR][dR][dR][dR][dR]-NH2) : 6.12

// pIC50 value for O=S(=O)(c1cccc2cnccc12)N1CCCNCC1 : 4.26

// pIC50 value for N=C(N)NCCC[C@@H](NC(=O)[C@@H](CCCNC(=N)N)NC(=O)[C@@H](CCCNC(=N)N)NC(=O)[C@@H](CCCNC(=N)N)NC(=O)[C@@H](CCCNC(=N)N)NC(=O)[C@@H](CCCNC(=N)N)NC(=O)CCCCCNC(=O)[C@@H](CCCCN)NC(=O)CCCCCNC(=O)c1ccc(-c2ccnc(N)n2)s1)C(N)=O ({X1-Ahx}-[dK][Ahx][dR][dR][dR][dR][dR][dR]-NH2) : 6.78

// pIC50 value for N=C(N)NCCC[C@@H](NC(=O)[C@@H](CCCNC(=N)N)NC(=O)[C@@H](CCCNC(=N)N)NC(=O)[C@@H](CCCNC(=N)N)NC(=O)[C@@H](CCCNC(=N)N)NC(=O)[C@@H](CCCNC(=N)N)NC(=O)CCCCCNC(=O)[C@@H](CCCCN)NC(=O)CCCCCCCN1CCCN(S(=O)(=O)c2cccc3cnccc23)CC1)C(N)=O : 5.01

// pIC50 value for N=C(N)NCCC[C@@H](NC(=O)[C@@H](CCCNC(=N)N)NC(=O)[C@@H](CCCNC(=N)N)NC(=O)[C@@H](CCCNC(=N)N)NC(=O)[C@@H](CCCNC(=N)N)NC(=O)[C@@H](CCCNC(=N)N)NC(=O)CCCCCNC(=O)[C@H]1O[C@@H](n2cnc3c(N)ncnc32)[C@H](O)[C@@H]1O)C(N)=O : 6.12

// pIC50 value for N=C(N)NCCC[C@@H](NC(=O)[C@@H](CCCNC(=N)N)NC(=O)CCCCCNC(=O)[C@@H](CCCCN)NC(=O)CCCCCCCN1CCCN(S(=O)(=O)c2cccc3cnccc23)CC1)C(N)=O : 4.12
